test: Cytotoxicity assay (MTT), HGF normal cells; type: cell-based; conditions: human, HGF gingival fibroblasts (normal oral cells), non-tumor cells
experimental_readout: CC50 at 48 h
The number alone won't do; follow it with the unit.

Completed entries (count: 5):
- compound: "COc1ccccc1C1=NN(c2ccc(S(N)(=O)=O)cc2)C(c2ccc3c(c2)OCO3)C1 (centres unmarked)"
  CC50 at 48 h: "36.9 µM"
- compound: "O=c1[nH]cc(F)c(=O)[nH]1 [5-FU, 5-Fluorouracil, reference compound]"
  CC50 at 48 h: "1000 µM"
- compound: "COc1cc(C2=NN(c3ccc(S(N)(=O)=O)cc3)C(c3ccc4c(c3)OCO4)C2)ccc1O (centres unmarked)"
  CC50 at 48 h: "76.7 µM"
- compound: "COc1cccc(C2=NN(c3ccc(S(N)(=O)=O)cc3)C(c3ccc4c(c3)OCO4)C2)c1 (centres unmarked)"
  CC50 at 48 h: "38.2 µM"
- compound: "COc1ccc(OC)c(C2=NN(c3ccc(S(N)(=O)=O)cc3)C(c3ccc4c(c3)OCO4)C2)c1 (centres unmarked)"
  CC50 at 48 h: "400 µM"

Given COc1cc(OC)c(C2=NN(c3ccc(S(N)(=O)=O)cc3)C(c3ccc4c(c3)OCO4)C2)cc1OC (centres unmarked) , state its recorded CC50 at 48 h.
400 µM

Also NS(=O)(=O)c1ccc(N2N=C(c3ccccc3)CC2c2ccc3c(c2)OCO3)cc1 (centres unmarked) , if possible.
56.3 µM

Also COc1ccc(C2=NN(c3ccc(S(N)(=O)=O)cc3)C(c3ccc4c(c3)OCO4)C2)c(OC)c1 (centres unmarked) , if possible.
400 µM

Also COc1cc(C2=NN(c3ccc(S(N)(=O)=O)cc3)C(c3ccc4c(c3)OCO4)C2)cc(OC)c1OC (centres unmarked) , if possible.
400 µM

Also COc1ccc(C2=NN(c3ccc(S(N)(=O)=O)cc3)C(c3ccc4c(c3)OCO4)C2)cc1 (centres unmarked) , if possible.
400 µM

Also COc1ccc(C2=NN(c3ccc(S(N)(=O)=O)cc3)C(c3ccc4c(c3)OCO4)C2)cc1OC (centres unmarked) , if possible.
400 µM

----------
experimental_readout: melting point

Completed entries (count: 3):
- molecule: "COc1ccc(C2=NN(c3ccc(S(N)(=O)=O)cc3)C(c3ccc4c(c3)OCO4)C2)c(OC)c1 (stereo not shown)"
  melting point: "134 to 136 °C"
- molecule: "NS(=O)(=O)c1ccc(N2N=C(c3ccccc3)CC2c2ccc3c(c2)OCO3)cc1 (stereo not shown)"
  melting point: "196 to 198 °C"
- molecule: "COc1cccc(C2=NN(c3ccc(S(N)(=O)=O)cc3)C(c3ccc4c(c3)OCO4)C2)c1 (stereo not shown)"
  melting point: "184 to 186 °C"

Given COc1cc(C2=NN(c3ccc(S(N)(=O)=O)cc3)C(c3ccc4c(c3)OCO4)C2)ccc1O (stereo not shown) , state its recorded melting point.
161 to 163 °C

----------
Tested on: oral squamous cell carcinoma (HSC-2) cells
Assay: Cytotoxicity assay (MTT), HSC-2
Format: cell-based, human
Details: cytotoxicity relative to 5-FU
Method: The cytotoxicity of the compounds 4a - 4j were assayed towards human tumor cell lines [gingival carcinoma (Ca9–22), oral squamous cell carcinoma (HSC-2)] and human normal oral cells [gingival fibroblasts (HGF), and periodontal ligament fibroblasts (HPLF)] as described [42, 54 – 56]. […] The viable cell numbers were determined by the 3-(4,5-dimethylthiazol-2-yl)-2,5-diphenyltetrazolium bromide (MTT) assay. The CC50 values were determined from dose-response curves. […]
experimental_readout: times of potency compared to 5-FU, HSC-2

Completed entries (count: 3):
- compound: "COc1cc(C2=NN(c3ccc(S(N)(=O)=O)cc3)C(c3ccc4c(c3)OCO4)C2)cc(OC)c1OC (stereo not shown)"
  experimental_readout: "times of potency compared to 5-FU, HSC-2"
  result: 8.4
- compound: "COc1cc(C2=NN(c3ccc(S(N)(=O)=O)cc3)C(c3ccc4c(c3)OCO4)C2)ccc1O (stereo not shown)"
  experimental_readout: "times of potency compared to 5-FU, HSC-2"
  result: 9.8
- compound: "COc1ccccc1C1=NN(c2ccc(S(N)(=O)=O)cc2)C(c2ccc3c(c2)OCO3)C1 (stereo not shown)"
  experimental_readout: "times of potency compared to 5-FU, HSC-2"
  result: 15.3

Attention now turns to another entry.
Given COc1ccc(C2=NN(c3ccc(S(N)(=O)=O)cc3)C(c3ccc4c(c3)OCO4)C2)c(OC)c1 (stereo not shown) , state its recorded times of potency compared to 5-FU, HSC-2.
19.3
